system tested: Rat NOS-1 (nNOS) (Rattus norvegicus)
Construct: purchased Cayman Chemical 60870; host or cells: Baculovirus / Sf9 cells
Sequence (P29476 whole entry): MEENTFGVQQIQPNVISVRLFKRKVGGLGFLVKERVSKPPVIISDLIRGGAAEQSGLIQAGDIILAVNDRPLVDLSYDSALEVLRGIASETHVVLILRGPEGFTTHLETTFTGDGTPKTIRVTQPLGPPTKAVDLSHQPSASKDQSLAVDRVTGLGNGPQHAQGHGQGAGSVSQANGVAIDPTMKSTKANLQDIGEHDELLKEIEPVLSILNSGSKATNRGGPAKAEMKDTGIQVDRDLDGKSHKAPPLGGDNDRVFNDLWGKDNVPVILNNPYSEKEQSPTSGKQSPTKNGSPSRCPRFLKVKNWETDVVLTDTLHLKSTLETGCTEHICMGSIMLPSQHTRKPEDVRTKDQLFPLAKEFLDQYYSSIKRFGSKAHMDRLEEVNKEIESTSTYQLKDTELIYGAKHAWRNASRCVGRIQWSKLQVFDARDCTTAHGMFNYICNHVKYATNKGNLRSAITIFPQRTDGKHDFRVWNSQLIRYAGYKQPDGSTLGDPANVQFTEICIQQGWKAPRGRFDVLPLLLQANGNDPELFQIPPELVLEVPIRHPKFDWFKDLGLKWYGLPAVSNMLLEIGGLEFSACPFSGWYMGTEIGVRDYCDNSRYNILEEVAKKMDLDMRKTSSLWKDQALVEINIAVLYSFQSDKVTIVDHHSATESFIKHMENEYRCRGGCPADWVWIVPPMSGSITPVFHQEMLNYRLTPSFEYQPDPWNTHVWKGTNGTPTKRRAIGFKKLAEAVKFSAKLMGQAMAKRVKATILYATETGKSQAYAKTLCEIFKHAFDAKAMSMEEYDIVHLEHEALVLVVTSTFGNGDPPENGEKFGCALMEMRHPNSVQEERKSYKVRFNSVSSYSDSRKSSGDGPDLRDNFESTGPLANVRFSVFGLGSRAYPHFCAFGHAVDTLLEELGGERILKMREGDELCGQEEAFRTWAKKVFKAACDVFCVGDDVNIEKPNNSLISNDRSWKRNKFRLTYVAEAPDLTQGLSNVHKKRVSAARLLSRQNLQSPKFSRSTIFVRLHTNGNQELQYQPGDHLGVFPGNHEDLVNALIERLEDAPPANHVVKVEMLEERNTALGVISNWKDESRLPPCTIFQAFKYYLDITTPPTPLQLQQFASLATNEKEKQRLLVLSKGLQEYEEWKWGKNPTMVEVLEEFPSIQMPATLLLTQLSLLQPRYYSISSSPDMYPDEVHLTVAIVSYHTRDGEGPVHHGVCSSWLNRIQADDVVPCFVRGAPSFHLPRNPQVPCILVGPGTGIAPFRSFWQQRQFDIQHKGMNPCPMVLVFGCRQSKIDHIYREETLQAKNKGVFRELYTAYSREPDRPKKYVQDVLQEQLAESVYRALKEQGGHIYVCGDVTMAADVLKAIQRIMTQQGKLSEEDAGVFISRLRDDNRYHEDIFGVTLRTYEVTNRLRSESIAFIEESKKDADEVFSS
test name: Rat NOS-1 (nNOS) assay ([3H]-arginine to [3H]-citrulline conversion)
Assay type: biochemical
cond: recombinant rat nNOS, 20 min at 37° C., 2 μM L-[3H]arginine; * mean of 3 determinations
measured property: IC50 (nM)

- compound: "NCCCOc1cc(=O)oc2ccccc12 [Example 19, 4-(3-Amino-propoxy)-1-benzopyran-2-one]"
  system tested: "Rat NOS-1 (nNOS) (Rattus norvegicus)"
  measured property: "IC50"
  unit name: "nM"
  readout number: 9100

I. NCCCOc1cc(=O)oc2ccc(Br)cc12 [Example 11]
II. NCCCOc1cc(=O)oc2ccc(Cl)cc12 [Example 1]
Prompt: Problem: Given the entries I and II , determine which has the lower reported IC50. Answer with the label corresponding to your selection.
Response: I
(I: 360 nM, II: 560 nM)
